So I've got a bunch of binders here, and I need their pEC50 values.
Biological target: T1, human KLB on CHOK1-hKLB cells (human, UniProt Q86Z14 1-1044)
T1 construct: whole, on cells; also called human KLB antigen; β-Klotho
T1 sequence (looked up): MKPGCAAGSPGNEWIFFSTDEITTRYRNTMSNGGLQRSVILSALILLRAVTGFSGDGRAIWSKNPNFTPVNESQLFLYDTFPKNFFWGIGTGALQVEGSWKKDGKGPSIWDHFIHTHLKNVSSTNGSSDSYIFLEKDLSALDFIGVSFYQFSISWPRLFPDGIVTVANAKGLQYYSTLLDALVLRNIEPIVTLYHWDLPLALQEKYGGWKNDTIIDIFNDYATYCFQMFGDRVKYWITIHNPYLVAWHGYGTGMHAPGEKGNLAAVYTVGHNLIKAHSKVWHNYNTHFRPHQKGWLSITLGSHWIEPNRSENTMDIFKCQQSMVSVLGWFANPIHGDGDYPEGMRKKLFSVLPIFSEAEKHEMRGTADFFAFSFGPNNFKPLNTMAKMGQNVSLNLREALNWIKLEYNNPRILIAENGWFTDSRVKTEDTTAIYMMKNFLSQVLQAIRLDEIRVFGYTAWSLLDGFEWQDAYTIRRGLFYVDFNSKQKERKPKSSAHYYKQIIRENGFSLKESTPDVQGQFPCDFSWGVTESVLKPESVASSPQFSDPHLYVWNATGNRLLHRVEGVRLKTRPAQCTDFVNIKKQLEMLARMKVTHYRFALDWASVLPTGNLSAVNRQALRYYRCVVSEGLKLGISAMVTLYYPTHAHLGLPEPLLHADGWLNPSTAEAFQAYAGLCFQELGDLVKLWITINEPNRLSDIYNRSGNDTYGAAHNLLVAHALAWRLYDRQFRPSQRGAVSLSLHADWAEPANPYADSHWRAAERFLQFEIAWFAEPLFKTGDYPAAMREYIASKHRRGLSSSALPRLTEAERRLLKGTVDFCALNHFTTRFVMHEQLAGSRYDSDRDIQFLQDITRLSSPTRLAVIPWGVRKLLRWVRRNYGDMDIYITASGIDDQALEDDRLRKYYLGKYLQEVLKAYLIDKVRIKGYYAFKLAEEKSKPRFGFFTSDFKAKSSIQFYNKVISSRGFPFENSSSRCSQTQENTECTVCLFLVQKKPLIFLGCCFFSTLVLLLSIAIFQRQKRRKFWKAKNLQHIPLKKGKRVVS
Assay: flow cytometry on CHOK1-hKLB cells
Source text: The above heavy chain variable regions were fused to the heavy chain constant region (set forth in SEQ ID NO: 22) and the light chain variable regions were fused to the light chain constant region (set forth in SEQ ID NO: 23) to construct anti-KLB antibodies, and the binding activity of the obtained antibodies for CHOK1-hKLB was detected (see Test Example 2 of the present disclosure for the experimental method). […]
Answers are plain numbers, as −log10 of the molar value.

Use these answered entries as a reference point.
>>> recorded_result("hAb99-20 (antibody, human IgG1, kappa, L234A L235A, V domains shown, humanized mAb-99: hAb99VH3-NL + hAb99VL2; human IgG1 (L234A, L235A) / kappa constant regions) VH: EVQLVQSGAEVKKPGASVKVSCKTSGYTFTNYGINWVRQAPGQGLEWMGYIYIGNLDIEYNAKFKGRVTITSDTSASTAYMELSSLRSEDTAVYFCARGRGLGHFDVWGQGTTVTVSS VL: DIQMTQSPSSLSASVGDRVTITCRASKSISKFLAWFQQKPGKTNKLLIYSGSTLQSGVPSRFSGSGSGTDFTLTISSLQPEDFATYYCQQHNEYPWTFGGGTKVEIKR")
9.39
>>> recorded_result("hAb99-14 (antibody, human IgG1, kappa, L234A L235A, V domains shown, humanized mAb-99: hAb99VH1-NL + hAb99VL2; human IgG1 (L234A, L235A) / kappa constant regions) VH: EVQLVQSGAEVKKPGASVKVSCKASGYTFTNYGINWVRQAPGQRLEWMGYIYIGNLDIEYNAKFKGRVTITSDTSASTAYMELSSLRSEDTAVYYCARGRGLGHFDVWGQGTTVTVSS VL: DIQMTQSPSSLSASVGDRVTITCRASKSISKFLAWFQQKPGKTNKLLIYSGSTLQSGVPSRFSGSGSGTDFTLTISSLQPEDFATYYCQQHNEYPWTFGGGTKVEIKR")
9.22

Kindly consider the entry below.
I'd like to know its pEC50. The binder in question is hAb99-8 (antibody, human IgG1, kappa, L234A L235A, V domains shown, humanized mAb-99: hAb99VH2 + hAb99VL4; human IgG1 (L234A, L235A) / kappa constant regions) VH: EVQLVQSGAEVKKPGASVKVSCKASGYTFTNYGINWVRQAPGQGLEWMGYIYIGNGDIEYNAKFKGRVTITSDTSASTAYMELSSLRSEDTAVYYCARGRGLGHFDVWGQGTTVTVSS VL: DVQITQSPSSLSASVGDRVTITCRASKSISKFLAWFQEKPGKTNKLLIYSGSTLQSGIPSRFSGSGSGTDFTLTISSLQPEDFATYYCQQHNEYPWTFGGGTKVEIKR
9.41
